Molecular target: UniProt Q7ZJM1
Sequence (Q7ZJM1 whole entry): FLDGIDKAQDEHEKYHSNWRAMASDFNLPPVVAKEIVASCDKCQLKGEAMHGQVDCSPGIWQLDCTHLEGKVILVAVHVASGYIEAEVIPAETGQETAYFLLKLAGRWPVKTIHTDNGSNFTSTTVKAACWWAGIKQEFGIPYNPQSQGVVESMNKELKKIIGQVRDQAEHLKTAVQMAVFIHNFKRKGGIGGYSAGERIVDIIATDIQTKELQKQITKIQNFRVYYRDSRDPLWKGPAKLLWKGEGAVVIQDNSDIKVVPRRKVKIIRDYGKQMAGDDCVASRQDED
Test: Compound was tested for the inhibition HIV integrase strand transfer activity
Readout Type: IC50 (µM)

1) Nc1ccn([C@H]2C[C@@H](O)[C@@H](COP(=O)(O)O[C@@H]3[C@H](COP(=O)(O)O)OC[C@@H]3n3cnc4c(N)ncnc43)O2)c(=O)n1 | 25
